Assay: in vitro
Details: human, plasma
Starred links: 1 amine or outer side, 2 acyl side, 3 side chain; linkers in the order of their positions; H or OH if unused. Non-standard residues stand in square brackets, D forms with d. Residues, ends and D or L forms follow the SMILES beside them. ξ: configuration not given here. Oic = O=C(O)[C@@H]1C[C@@H]2CCCC[C@@H]2N1; GABOB(3R) = O=C(C[C@@H](O)CN[*:1])[*:2]; tBuAla = CC(C)(C)C[C@H](N)C(=O)O; ξVal(3-OH) = CC(C)(O)C(N)C(=O)O; 4Amb = NCc1ccc(C(=O)O)cc1
PROPERTY LABEL: remaining at 2 h, 5 μM (%)
Write the number in % without appending the unit.

Could you tell me which remaining at 2 h, 5 μM is on file for CC(C)(C)C[C@@H]1NC(=O)C[C@@H](O)CNC(=O)[C@@H]2C[C@@H]3CCCC[C@@H]3N2C(=O)[C@H](CC(C)(C)C)NC(=O)c2ccc(cc2)CNC(=O)C(C(C)(C)O)NC(=O)[C@@H](Cc2ccccc2)NC1=O (stereo partly drawn) [compound 109] (cyclo([4Amb][tBuAla][Oic][GABOB(3R)][tBuAla][dF][ξVal(3-OH)])) ? 101

---

Assay: Aggregation / solubility at 1 mM
Format: physicochemical
Conditions: summary calls it solubility at 1mM
Non-standard residues stand in square brackets, D forms with d. Residues, ends and D or L forms follow the SMILES beside them. dVal(3-OH) = CC(C)(O)[C@@H](N)C(=O)O; cisHyp = O=C(O)[C@@H]1C[C@H](O)CN1; tBuAla = CC(C)(C)C[C@H](N)C(=O)O
PROPERTY LABEL: Aggregation at 1mM
Returns: the value as a bare number; no unit string appended.

Could you tell me which Aggregation at 1mM is on file for CC[C@H](C)[C@H](NC(=O)[C@@H](NC(=O)[C@@H]1C[C@H](O)CN1C(=O)[C@H](CC(C)(C)C)NC(=O)[C@H](CCC(=O)O)NC(=O)[C@H](NC(=O)[C@@H](N)Cc1ccccc1)C(C)(C)O)[C@@H](C)O)C(=O)O [compound 038] (H-F[dVal(3-OH)]E[tBuAla][cisHyp]TI-OH) ? 0.35

---

Assay: in vivo
Conditions: male, Crl:CD (SD), rat, iv, 5 mg/kg
Starred links: 1 amine or outer side, 2 acyl side, 3 side chain; linkers in the order of their positions; H or OH if unused. Non-standard residues stand in square brackets, D forms with d. Residues, ends and D or L forms follow the SMILES beside them. ξ: configuration not given here. Oic = O=C(O)[C@@H]1C[C@@H]2CCCC[C@@H]2N1; GABOB(3R) = O=C(C[C@@H](O)CN[*:1])[*:2]; tBuAla = CC(C)(C)C[C@H](N)C(=O)O; ξVal(3-OH) = CC(C)(O)C(N)C(=O)O; 4Amb = NCc1ccc(C(=O)O)cc1
PROPERTY LABEL: level at 4 h
Note: state the figure and append the unit.

Could you tell me which level at 4 h is on file for CC(C)(C)C[C@@H]1NC(=O)C[C@@H](O)CNC(=O)[C@@H]2C[C@@H]3CCCC[C@@H]3N2C(=O)[C@H](CC(C)(C)C)NC(=O)c2ccc(cc2)CNC(=O)C(C(C)(C)O)NC(=O)[C@@H](Cc2ccccc2)NC1=O (stereo partly drawn) [compound 109] (cyclo([4Amb][tBuAla][Oic][GABOB(3R)][tBuAla][dF][ξVal(3-OH)])) ? 127 ng/mL
